// T/C lookup, one value per entry
System: L1210 leukemia ip in BDF1 mice, survival T/C
Test: NCI In Vivo Anticancer Drug Screen. Data for tumor model L1210 Leukemia (intraperitoneal) in B6D2F1 (BDF1) mice
Details: endpoint: mean survival time; dose: 400.0 mg/kg/injection; schedule: Q01DX009 (ip); vehicle: saline with Tween-80; higher = longer survival
Toxic doses and inconclusive results are not listed.

molecule: CCC1(O)C2CCCC1CCC2 (centres undefined)
measured_target: L1210 leukemia ip in BDF1 mice, survival T/C
T/C: 97 % of control

molecule: O=C(O)c1ccccc1C(=O)NC(Cc1cnc[nH]1)C(=O)O (centres undefined)
measured_target: L1210 leukemia ip in BDF1 mice, survival T/C
T/C: 94 % of control

molecule: COc1ccc(C(=O)CC(C(=O)O)c2ccc3c(c2)OCO3)cc1OC (centres undefined)
measured_target: L1210 leukemia ip in BDF1 mice, survival T/C
T/C: 98 % of control

molecule: O=C(CC(NC(=O)OCc1ccccc1)c1nn[nH]n1)OCc1ccccc1 (centres undefined)
measured_target: L1210 leukemia ip in BDF1 mice, survival T/C
T/C: 90 % of control

molecule: CC(C)C(=O)Nc1cccc(Cl)c1
measured_target: L1210 leukemia ip in BDF1 mice, survival T/C
T/C: 101 % of control

molecule: O=C1C(=O)N2c3ccccc3CCc3cccc1c32
measured_target: L1210 leukemia ip in BDF1 mice, survival T/C
T/C: 100 % of control

molecule: CCCCOC(=O)c1ccc(OC(=O)NC)cc1
measured_target: L1210 leukemia ip in BDF1 mice, survival T/C
T/C: 112 % of control

molecule: COc1ccc(C(O)c2ccccc2C(=O)Nc2ccccc2)cc1 (centres undefined)
measured_target: L1210 leukemia ip in BDF1 mice, survival T/C
T/C: 95 % of control

molecule: CC(Cl)CNC(=O)Nc1cccc2c1CCCC2 (centres undefined)
measured_target: L1210 leukemia ip in BDF1 mice, survival T/C
T/C: 90 % of control
